- Experimental protocol: Nrf2 qHTS screen for inhibitors: Validation (AID 493153)
- Condition summary: A549 ARE-Fluc reporter, 18-24 h; luciferase luminescence
Records with an inconclusive call do not appear. Calls of active or inactive are those of the source. Calls come from the whole dose curve; as a rule, active = well fitted inhibition curve with a large enough effect in the main read-out, with a control signal flat (not every such curve was filed as active); inconclusive = small, poorly fitted or top-dose-only effect, or effect the other way, or a change in a side signal; inactive = no such curve, though single readings can be large or run the other way.
Possible outcomes: yes (1) for active, no (0) for inactive

- CCCCCC(O)CCCC(=O)O (configuration not stated): no (0)
- CCCCOc1cc(CC2CNC(=O)N2)ccc1OC (configuration not stated): no (0)
- C=CC[C@H](N)C(=O)O: no (0)
- C=CCN1CCc2c(cc(O)c(O)c2Cl)C(c2ccccc2)C1 (configuration not stated): no (0)
- COCc1nc2c([nH]1)c(=O)n(C)c(=O)n2CC(C)C: no (0)
- CNc1ncnc2c1ncn2[C@H]1C[C@H](OP(=O)(O)O)[C@@H](COP(=O)(O)O)O1: no (0)
- O=c1onc2n1-c1cc(Br)ccc1OC2: no (0)
- NCC(O)(CS(=O)(=O)O)c1ccc(Cl)cc1 (configuration not stated): no (0)
- CN1CCN(c2nc3cc(C(F)(F)F)ccc3n3cccc23)CC1: no (0)
- CCCCC[C@H](CC(=O)NO)C(=O)N[C@H](C(=O)N1CCC[C@H]1CO)C(C)C: yes (1)
- N[C@@H](CS(=O)O)C(=O)O: no (0)
- CSC(N)=NCCC[C@H](N)C(=O)O: no (0)
